Ref: ChEMBL document CHEMBL4400569

assay: Solubility of the compound in FaSSIF by HPLC analysis; format: physicochemical
Measure: solubility (µg/mL)
// return numeric value only (unit: µg/mL, not printed)

## Input Find the recorded solubility belonging to `CC(C)(O)[C@H]1CC[C@H](NC(=O)c2cnc3cc(OC(F)(F)F)ccc3c2)CC1` and report it.
## Output 16

----------
test: Terminal half life in mouse; format: ADME, organism-based; settings: in vivo
Measure: beta t1/2 (h)
// return numeric value only (unit: h, not printed)

## Input Find the recorded beta t1/2 belonging to `CC(C)(O)[C@H]1CC[C@H](NC(=O)c2cnc3cc(OC(F)F)ccc3c2)CC1` and report it.
## Output 3.8
